Cited source for all entries: paper PMC8198714

ASSAY SYSTEM: FAAH in rat brain membranes (Rattus norvegicus)
Sequence (P97612 whole entry): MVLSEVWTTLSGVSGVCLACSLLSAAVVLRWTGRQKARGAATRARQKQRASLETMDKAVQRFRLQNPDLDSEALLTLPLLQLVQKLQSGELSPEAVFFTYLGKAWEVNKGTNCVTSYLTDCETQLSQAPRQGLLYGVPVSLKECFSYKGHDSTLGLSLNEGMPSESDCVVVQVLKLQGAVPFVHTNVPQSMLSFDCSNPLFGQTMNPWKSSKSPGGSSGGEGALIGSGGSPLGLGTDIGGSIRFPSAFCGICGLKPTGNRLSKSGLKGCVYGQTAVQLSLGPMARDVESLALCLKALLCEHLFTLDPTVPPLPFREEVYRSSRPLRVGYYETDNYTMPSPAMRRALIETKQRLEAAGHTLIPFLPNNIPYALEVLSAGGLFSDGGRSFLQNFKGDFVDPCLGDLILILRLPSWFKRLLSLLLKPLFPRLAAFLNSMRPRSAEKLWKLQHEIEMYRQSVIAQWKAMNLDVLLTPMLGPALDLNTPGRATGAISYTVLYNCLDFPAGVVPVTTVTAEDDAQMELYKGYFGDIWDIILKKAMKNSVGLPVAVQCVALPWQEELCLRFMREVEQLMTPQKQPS
EXPERIMENTAL DETAILS: FAAH assay, [14C]-AEA hydrolysis in rat brain membranes
SETTINGS: IC50 FAAH with 20 min Pre-incubation, rat brain membranes, 20 min pre-incubation at 37 °C
pIC50: −log10 of the molar value.

MOLECULAR STRING: CN(CCCOc1ccc2ccc(=O)oc2c1)Cc1cccc(OC(=O)NC2CCCCC2)c1
ASSAY SYSTEM: FAAH in rat brain membranes (Rattus norvegicus)
pIC50: 5.88

MOLECULAR STRING: CN(CCCOc1ccc2ccc(=O)oc2c1)Cc1cccc(OC(=O)NC2CCCC2)c1
ASSAY SYSTEM: FAAH in rat brain membranes (Rattus norvegicus)
pIC50: 5.60

MOLECULAR STRING: CN(CCCOc1ccc2ccc(=O)oc2c1)Cc1cccc(OC(=O)Nc2ccc3ccccc3c2)c1
ASSAY SYSTEM: FAAH in rat brain membranes (Rattus norvegicus)
pIC50: 6.20
